The values you see were collected from patent US5422341A.

STUDY_SYSTEM: segments of rabbit duodenum (Oryctolagus cuniculus, UniProt G1T803)
Sequence (G1T803 1-400): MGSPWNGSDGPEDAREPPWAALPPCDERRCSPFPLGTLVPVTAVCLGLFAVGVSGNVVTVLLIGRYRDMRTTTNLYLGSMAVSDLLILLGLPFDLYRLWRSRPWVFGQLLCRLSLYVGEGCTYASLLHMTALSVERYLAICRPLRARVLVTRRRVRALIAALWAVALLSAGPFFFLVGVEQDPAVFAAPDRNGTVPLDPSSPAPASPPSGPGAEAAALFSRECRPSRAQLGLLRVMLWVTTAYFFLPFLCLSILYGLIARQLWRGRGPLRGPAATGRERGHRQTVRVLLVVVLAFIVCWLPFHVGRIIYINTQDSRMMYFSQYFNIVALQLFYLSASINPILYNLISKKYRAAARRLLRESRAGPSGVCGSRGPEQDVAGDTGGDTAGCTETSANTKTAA
PROCEDURE_TEXT: Rabbit duodenal smooth muscle strip tissue bath assay
Type: cell-based
ASSAY_SETUP: negative logarithm of the dose giving 50% of the maximal response to motilin; isotonic contraction of rabbit duodenum segments
Square brackets hold non-standard residues; d marks the D form. Peptide text beside a SMILES is read from it.
READOUT_TYPE: pEC50
Output spec: single numeric token, no unit.

Query block: Give the measured pEC50 of CC[C@H](C)[C@H](NC(=O)[C@H](C)NC(=O)[C@@H](NC(=O)[C@@H](N)Cc1ccccc1)C(C)C)C(=O)N[C@@H](Cc1ccccc1)C(=O)N[C@H](C(=O)N[C@@H](Cc1ccc(O)cc1)C(=O)NCC(=O)N[C@@H](CCC(=O)O)C(=O)N[C@@H](CC(C)C)C(=O)N[C@@H](CCC(N)=O)C(=O)N[C@H](CCCNC(=N)N)C(=O)N[C@@H](CC(C)C)C(=O)N[C@@H](CCC(N)=O)C(=O)O)[C@@H](C)O [[Ala^3, D-Arg^ 12, Leu^13]pMOT(1-14)] (H-FVAIFTYGELQ[dR]LQ-OH) .
Result block: 7.71

----------
STUDY_SYSTEM: motilin receptor (Oryctolagus cuniculus)
Construct: from tissue; host or cells: rabbit antral smooth muscle membranes
Sequence (G1T803 1-400): as above
PROCEDURE_TEXT: Determination of motilin receptor binding affinity (displacement of [125I-Tyr7, Nle13]motilin(porcine))
Set-up: species or system rabbit
ASSAY_SETUP: negative logarithm of the concentration displacing 50% of [125I-Tyr7, Nle13]motilin(porcine) from rabbit antral smooth muscle membranes; read-out: pIC50 (converted)
Procedure: The motilin receptor binding affinity of the peptides of this invention was determined by using the general procedure of Bormans, Peelers and Vantrappen, Regul. […] Fitting was performed using the iterative least-squares procedure of the SAS-software package (SAS Institute, Inc., Cary, N.C., USA).
Square brackets hold non-standard residues; d marks the D form. Peptide text beside a SMILES is read from it. NMeF = CN[C@@H](Cc1ccccc1)C(=O)O
READOUT_TYPE: IC50 (nM)
Your answer is read as nM, so omit the unit and give the number.

Query block: Give the measured IC50 of CC[C@H](C)[C@H](NC(=O)[C@H](C)NC(=O)[C@@H](NC(=O)[C@H](Cc1ccccc1)NC)C(C)C)C(=O)N[C@@H](Cc1ccccc1)C(=O)N[C@H](C(=O)N[C@@H](Cc1ccc(O)cc1)C(=O)NCC(=O)N[C@@H](CCC(=O)O)C(=O)N[C@@H](CC(C)C)C(=O)N[C@@H](C)C(=O)N[C@H](CCCNC(=N)N)C(=O)N[C@@H](CC(C)C)C(=O)N[C@H](CCC(N)=O)C(N)=O)[C@@H](C)O (H-[NMeF]VAIFTYGELA[dR]L[dQ]-NH2) .
Result block: 0.724

----------
STUDY_SYSTEM: segments of rabbit duodenum (Oryctolagus cuniculus, UniProt G1T803)
PROCEDURE_TEXT: Rabbit duodenal smooth muscle strip tissue bath assay
Type: cell-based
ASSAY_SETUP: negative logarithm of the dose giving 50% of the maximal response to motilin; isotonic contraction of rabbit duodenum segments
Square brackets hold non-standard residues; d marks the D form. Peptide text beside a SMILES is read from it. * marks the point of attachment. X5 = C=CC[N+](C)(C)[C@@H](Cc1ccccc1)C(=O)*; X1 = C[N+](C)(C)[C@@H](Cc1ccccc1)C(=O)*
READOUT_TYPE: pEC50
Output spec: single numeric token, no unit.

In the examples that follow, each entry is paired with its recorded pEC50.
[
  {
    "COMPOUND": "CC[C@H](C)[C@H](NC(=O)[C@H](C)NC(=O)[C@@H](NC(=O)[C@H](Cc1ccccc1)[N+](C)(C)C)C(C)C)C(=O)N[C@@H](Cc1ccccc1)C(=O)N[C@H](C(=O)N[C@@H](Cc1ccc(O)cc1)C(=O)NCC(=O)N[C@@H](CCC(=O)O)C(=O)N[C@@H](CC(C)C)C(=O)N[C@@H](CCC(N)=O)C(=O)N[C@H](CCCNC(=N)N)C(=O)N[C@@H](CC(C)C)C(=O)N[C@H](CCC(N)=O)C(N)=O)[C@@H](C)O (X1-VAIFTYGELQ[dR]L[dQ]-NH2)",
    "READOUT_TYPE": "pEC50",
    "QUANTITATIVE_READOUT": 7.20
  },
  {
    "COMPOUND": "CC[C@H](C)[C@H](NC(=O)[C@H](C)NC(=O)[C@@H](NC(=O)[C@H](Cc1ccccc1)[N+](C)(C)C)C(C)C)C(=O)N[C@@H](Cc1ccccc1)C(=O)N[C@H](C(=O)N[C@@H](Cc1ccc(O)cc1)C(=O)NCC(=O)N[C@@H](CCC(=O)O)C(=O)N[C@@H](CC(C)C)C(=O)N[C@@H](C)C(=O)N[C@H](CCCNC(=N)N)C(=O)N[C@@H](CC(C)C)C(=O)N[C@@H](CCCCN)C(N)=O)[C@@H](C)O (X1-VAIFTYGELA[dR]LK-NH2)",
    "READOUT_TYPE": "pEC50",
    "QUANTITATIVE_READOUT": 7.59
  }
]

In the following, a different compound is considered.
Query block: Checklist item: pEC50 tested on segments of rabbit duodenum (Oryctolagus cuniculus, UniProt G1T803), entry C=CC[N+](C)(C)[C@@H](Cc1ccccc1)C(=O)N[C@H](C(=O)N1CCC[C@H]1C(=O)N[C@H](C(=O)N[C@@H](Cc1ccccc1)C(=O)N[C@H](C(=O)N[C@@H](Cc1ccc(O)cc1)C(=O)NCC(=O)N[C@@H](CCC(=O)O)C(=O)N[C@@H](CC(C)C)C(=O)N[C@@H](CCC(N)=O)C(=O)N[C@@H](CCCNC(=N)N)C(=O)N[C@@H](CC(C)C)C(=O)N[C@@H](CCC(N)=O)C(N)=O)[C@@H](C)O)[C@@H](C)CC)C(C)C (X5-VPIFTYGELQRLQ-NH2) , value?
Result block: 7.47
